Assay: Log P (Table 1, no method described)
Entries and their logP values follow.

compound: CCCS(=O)(=O)O[C@@](C)(COc1ccc(C#N)cc1)C(=O)Nc1cnc(C#N)c(C(F)(F)F)c1 [Example 17]
logP: 3.07
//
compound: C[C@](O)(COc1ccc(C#N)nc1)C(=O)Nc1cnc(C#N)c(C(F)(F)F)c1 [Example 5]
logP: 1.61
//
compound: C[C@](O)(COc1ccc(C#N)cc1)C(=O)Nc1cnc(C#N)c(C(F)(F)F)c1 [Example 3]
logP: 2.53
//
compound: C[C@](O)(COc1ccc(C#N)cc1)C(=O)Nc1ccc(C#N)c(C(F)(F)F)c1 [Ostarine, reference compound]
logP: 3.49
//
compound: C[C@](O)(Cn1cnc(C(F)(F)F)cc1=O)C(=O)Nc1cnc(C#N)c(C(F)(F)F)c1 [Example 1]
logP: 2.62
//
compound: CC(=O)O[C@@](C)(COc1ccc(C#N)cc1)C(=O)Nc1cnc(C#N)c(C(F)(F)F)c1 [Example 24]
logP: 2.76
//
compound: C[C@](O)(COc1ccc(C#N)nc1)C(=O)Nc1ccc(C#N)c(C(F)(F)F)c1 [Example 4]
logP: 2.53
